Task for the reader: assign each of the following molecules its reported pIC50.
Target: Gamma-aminobutyric acid receptor subunit alpha-1/beta-3/gamma-2 (Mus musculus, UniProt P22723+P62812+P63080)
Sequence (P22723 whole entry): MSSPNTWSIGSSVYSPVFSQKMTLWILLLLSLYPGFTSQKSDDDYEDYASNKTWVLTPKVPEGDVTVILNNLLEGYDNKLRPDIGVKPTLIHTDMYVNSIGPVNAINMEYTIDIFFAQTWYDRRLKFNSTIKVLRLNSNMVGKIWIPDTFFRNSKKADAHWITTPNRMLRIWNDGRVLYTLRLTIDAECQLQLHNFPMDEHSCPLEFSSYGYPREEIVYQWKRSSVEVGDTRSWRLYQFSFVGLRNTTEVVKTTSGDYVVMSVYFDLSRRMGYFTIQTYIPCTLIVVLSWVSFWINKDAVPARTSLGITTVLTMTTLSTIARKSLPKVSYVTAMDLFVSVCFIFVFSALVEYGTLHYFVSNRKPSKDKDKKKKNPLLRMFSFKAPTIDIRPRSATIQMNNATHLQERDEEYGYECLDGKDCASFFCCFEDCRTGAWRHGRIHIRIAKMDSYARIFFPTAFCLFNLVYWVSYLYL
Sequence (P62812 whole entry): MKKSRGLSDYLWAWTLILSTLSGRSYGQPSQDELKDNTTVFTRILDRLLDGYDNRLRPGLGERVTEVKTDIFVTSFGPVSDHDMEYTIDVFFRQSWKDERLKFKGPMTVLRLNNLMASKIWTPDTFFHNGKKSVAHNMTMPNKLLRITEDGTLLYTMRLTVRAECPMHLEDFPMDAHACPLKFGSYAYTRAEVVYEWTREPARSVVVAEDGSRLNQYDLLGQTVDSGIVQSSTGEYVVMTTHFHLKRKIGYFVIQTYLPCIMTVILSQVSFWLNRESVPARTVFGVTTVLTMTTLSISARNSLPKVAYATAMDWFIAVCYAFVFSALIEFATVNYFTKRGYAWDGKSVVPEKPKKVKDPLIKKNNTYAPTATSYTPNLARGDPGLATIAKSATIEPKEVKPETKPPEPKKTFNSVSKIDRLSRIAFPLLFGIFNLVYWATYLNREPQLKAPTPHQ
Sequence (P63080 whole entry): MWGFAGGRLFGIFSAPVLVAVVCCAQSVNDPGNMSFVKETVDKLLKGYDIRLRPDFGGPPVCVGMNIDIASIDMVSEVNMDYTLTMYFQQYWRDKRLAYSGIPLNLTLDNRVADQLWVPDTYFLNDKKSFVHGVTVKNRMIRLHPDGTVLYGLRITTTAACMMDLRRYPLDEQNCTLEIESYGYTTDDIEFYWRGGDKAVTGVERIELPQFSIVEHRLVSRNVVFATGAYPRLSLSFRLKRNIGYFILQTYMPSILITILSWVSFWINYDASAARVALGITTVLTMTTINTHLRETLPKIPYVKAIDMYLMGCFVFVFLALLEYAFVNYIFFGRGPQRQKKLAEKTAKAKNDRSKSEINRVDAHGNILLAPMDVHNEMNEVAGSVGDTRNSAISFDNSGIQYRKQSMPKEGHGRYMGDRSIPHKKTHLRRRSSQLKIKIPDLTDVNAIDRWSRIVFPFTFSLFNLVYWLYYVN
Assay: Negative allosteric modulation of recombinant mouse alpha1beta3gamma2 GABAA receptor expressed in GFP tagged HEK293 cells at peak current by whole-cell voltage clamp electrophysiological analysis
Format: cell-based
The scale used: pIC50 is minus the common logarithm of the concentration in molar units.

Looking up O=S(=O)(O)O[C@H]1CC[C@@H](c2ccc3c(c2)CCC3)CC1 , I see its pIC50 listed as 3.72

The value of pIC50 measured for the molecule CC(=O)[C@H]1CC[C@H]2[C@@H]3CC=C4C[C@@H](OS(=O)(=O)O)CC[C@]4(C)[C@H]3CC[C@]12C turned out to be 3.53

# pIC50 (molecule: C[C@]12CC[C@H](c3ccccc3)C[C@H]1CC[C@@H]2O (mixture of isomers) ) is 4.43

Entry under test: O[C@H]1CC[C@H](c2ccc3c(c2)CCC3)CC1 . Its pIC50 was 4.23

response.value for O[C@H]1CC[C@@H](c2ccc3c(c2)CCC3)CC1 (field: pIC50) = 4.26

The molecule identified as C[C@]12CC[C@H](c3ccccc3)C[C@H]1CC[C@@H]2OS(=O)(=O)O (mixture of isomers) registered its pIC50 at 3.89

pIC50 for C[C@]12CC[C@@H](c3ccccc3)C[C@H]1CC[C@@H]2OS(=O)(=O)O (mixture of isomers) is 4.12

Item: C[C@@]12CC/C(=C/CO)C[C@H]1CCc1ccccc12 | pIC50: 3.94

Noted for C[C@]12CC[C@@H](c3ccccc3)C[C@H]1CC[C@@H]2O (relative stereo) : its pIC50 reads 4.57
